# study system: human AMPK α1β1γ1 enzyme (Homo sapiens, UniProt Q13131+Q9Y478)
# Construct: purchased Carna Biosciences, Inc
# Sequence (Q13131 10-559 limits assumed): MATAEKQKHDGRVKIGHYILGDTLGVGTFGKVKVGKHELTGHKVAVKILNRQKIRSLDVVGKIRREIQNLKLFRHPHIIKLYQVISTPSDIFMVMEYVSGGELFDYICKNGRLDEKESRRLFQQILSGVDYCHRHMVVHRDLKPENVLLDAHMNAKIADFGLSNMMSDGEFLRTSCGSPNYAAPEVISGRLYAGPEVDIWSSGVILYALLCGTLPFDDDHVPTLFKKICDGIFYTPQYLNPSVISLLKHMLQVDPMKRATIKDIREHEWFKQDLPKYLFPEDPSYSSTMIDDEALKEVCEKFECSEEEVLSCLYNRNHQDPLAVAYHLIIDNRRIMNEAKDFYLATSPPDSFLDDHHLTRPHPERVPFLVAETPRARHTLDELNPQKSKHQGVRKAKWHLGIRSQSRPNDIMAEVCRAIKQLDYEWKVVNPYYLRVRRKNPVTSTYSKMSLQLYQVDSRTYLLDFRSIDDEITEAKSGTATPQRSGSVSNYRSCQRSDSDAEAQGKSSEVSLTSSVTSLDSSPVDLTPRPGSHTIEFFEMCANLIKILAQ
# Sequence (Q9Y478 whole entry): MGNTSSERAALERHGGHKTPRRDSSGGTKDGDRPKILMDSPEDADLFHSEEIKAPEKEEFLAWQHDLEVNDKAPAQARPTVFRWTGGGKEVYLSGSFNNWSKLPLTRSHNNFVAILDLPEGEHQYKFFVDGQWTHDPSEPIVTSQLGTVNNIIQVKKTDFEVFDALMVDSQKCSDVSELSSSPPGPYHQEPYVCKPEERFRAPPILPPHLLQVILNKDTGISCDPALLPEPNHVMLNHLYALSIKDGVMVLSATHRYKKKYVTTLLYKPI
# Sequence (P54619 whole entry partner): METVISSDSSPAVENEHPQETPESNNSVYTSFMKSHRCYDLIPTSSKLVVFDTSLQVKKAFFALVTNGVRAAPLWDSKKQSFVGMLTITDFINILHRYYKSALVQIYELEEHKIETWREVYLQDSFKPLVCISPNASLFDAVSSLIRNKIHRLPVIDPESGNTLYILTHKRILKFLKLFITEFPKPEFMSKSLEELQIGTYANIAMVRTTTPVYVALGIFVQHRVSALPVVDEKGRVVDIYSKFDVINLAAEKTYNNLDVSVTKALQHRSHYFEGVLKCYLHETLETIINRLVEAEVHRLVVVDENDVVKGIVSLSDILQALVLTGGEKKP
# procedure summary: Evaluation of AMPK activator, Test Example 1 (mobility-shift kinase assay, FL-Peptide 7)
# Type: biochemical
# condition label: human AMPK α1β1γ1, 25° C., 2 hours, 0.2 mM ATP final
Recorded EC150 (compound concentration showing 150% relative to the control (100%)), one value per entry.
Only the number, expressed in nM, is required.

[[record]]
compound = "CC(Oc1nc2nc(-c3ccc(N4CCOCC4)cc3)c(Cl)cc2[nH]1)C(N)=O (stereo not drawn)"
result_value = 910

[[record]]
compound = "CC(C)(C(=O)O)[C@H]1CC[C@H](Oc2nc3nc(-c4ccc(-c5ccc(C(=O)N6CCC(O)CC6)cc5)cc4)c(Cl)cc3[nH]2)CC1"
result_value = 9.1


Moving on to another compound below.
Prompt: Entry "CC(C)(C(=O)O)[C@]1(F)CC[C@@H](Oc2nc3nc(-c4ccc(N5CCOCC5)cc4)c(Cl)cc3[nH]2)CC1" : reported EC150 (compound concentration showing 150% relative to the control (100%)) = ?
Response: 3.7

###

molecules and their reported Emax
# study system: Human AMPK α2β2γ1 (Homo sapiens, UniProt O43741+P54646)
# Construct: The full length cDNAs of human AMPK β2 (NM_005399.3) and human AMPK α2 (NM_006252.3) were inserted; the full length cDNA of human AMPK γ1 (NM_002733.3) had been inserted into pET28b(+); 6xHis (N); made in house; host or cells: Escherichia coli BL21 CodonPlus (DE3)-RIL (AMPK); BL21 Star (DE3) (CaMKKβ)
# Sequence (P54646 whole entry): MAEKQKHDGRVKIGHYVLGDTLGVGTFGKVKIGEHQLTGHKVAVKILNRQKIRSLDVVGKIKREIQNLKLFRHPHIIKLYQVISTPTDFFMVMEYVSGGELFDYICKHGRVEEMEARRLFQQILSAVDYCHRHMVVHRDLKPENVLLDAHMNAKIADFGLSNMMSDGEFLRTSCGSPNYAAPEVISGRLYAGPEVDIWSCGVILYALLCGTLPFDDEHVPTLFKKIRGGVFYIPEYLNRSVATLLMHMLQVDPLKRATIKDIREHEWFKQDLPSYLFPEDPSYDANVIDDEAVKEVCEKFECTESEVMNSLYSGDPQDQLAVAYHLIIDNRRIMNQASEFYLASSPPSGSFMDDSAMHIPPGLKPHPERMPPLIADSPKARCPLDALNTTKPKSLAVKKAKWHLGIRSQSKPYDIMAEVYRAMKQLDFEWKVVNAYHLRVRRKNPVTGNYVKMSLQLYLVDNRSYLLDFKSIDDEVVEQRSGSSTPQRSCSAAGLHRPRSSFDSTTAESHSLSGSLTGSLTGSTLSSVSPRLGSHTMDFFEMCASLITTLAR
# Sequence (O43741 whole entry): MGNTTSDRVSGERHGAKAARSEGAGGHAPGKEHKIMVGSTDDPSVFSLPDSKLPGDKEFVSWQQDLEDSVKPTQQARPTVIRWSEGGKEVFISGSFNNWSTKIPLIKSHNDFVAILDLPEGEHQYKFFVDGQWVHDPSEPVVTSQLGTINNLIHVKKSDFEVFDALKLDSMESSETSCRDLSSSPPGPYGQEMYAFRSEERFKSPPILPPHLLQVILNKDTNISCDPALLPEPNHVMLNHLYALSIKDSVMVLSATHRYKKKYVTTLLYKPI
# Sequence (P54619 whole entry partner): as the sequence (P54619 whole entry partner) above
# procedure summary: Evaluation of AMPK activator, Test Example 2 (CaMKK2-phosphorylated enzyme, mobility-shift kinase assay)
# Assay type: biochemical
# condition label: human AMPK α2β2γ1 phosphorylated by CaMKK2, relative to control (100%); read-out: Emax (maximum rate of increase in activity within the measurement range)
Please reply with the bare figure in % and do not write the unit itself.

Illustrative cases are given below, each with its answer.
[[record]]
molecule = "CC(=O)NC1CC=C(c2ccc(-c3nc4nc(O[C@H]5CC[C@H](C(C)(C)CO)CC5)[nH]c4cc3Cl)cc2)CC1 (stereo partly drawn)"
result_value = 259

[[record]]
molecule = "CN(C)C(=O)[C@H]1C[C@@H](Oc2nc3nc(-c4ccc(C5=CCC(C(=O)O)CC5)cc4)c(Cl)cc3[nH]2)C1 (stereo partly drawn)"
result_value = 339

[[record]]
molecule = "CC(C)(C(=O)O)[C@]1(F)CC[C@@H](Oc2nc3nc(-c4ccc(N5CCOCC5)cc4)c(Cl)cc3[nH]2)CC1"
result_value = 261

[[record]]
molecule = "CC(C)(C(=O)O)[C@]1(O)CC[C@@H](Oc2nc3nc(-c4ccc(N5CCOCC5)cc4)c(Cl)cc3[nH]2)CC1"
result_value = 271

[[record]]
molecule = "NC(=O)c1ccc(-c2ccc(-c3nc4nc(O[C@H]5CC[C@H](C(=O)O)CC5)[nH]c4cc3Cl)cc2)cc1"
result_value = 262

[[record]]
molecule = "CC(=O)NC1CC=C(c2ccc(-c3nc4nc(O[C@H]5CC[C@H](CC(=O)O)CC5)[nH]c4cc3Cl)cc2)CC1 (stereo partly drawn)"
result_value = 175

[[record]]
molecule = "CC(C)(C(=O)O)[C@H]1CC[C@H](Oc2nc3nc(-c4ccc(C5=CCN(C(=O)CO)CC5)cc4)c(Cl)cc3[nH]2)CC1"
result_value = 274

[[record]]
molecule = "CC(C)(C(=O)O)[C@]1(O)CC[C@@H](Oc2nc3nc(-c4ccc(N5CCCC5)cc4)c(Cl)cc3[nH]2)CC1"
result_value = 271

[[record]]
molecule = "CC(Oc1nc2nc(-c3ccc(N4CCCC4)cc3)c(Cl)cc2[nH]1)c1cc(O)no1 (stereo not drawn)"
result_value = 269

[[record]]
molecule = "CN(C)C(=O)[C@]1(O)CC[C@@H](Oc2nc3nc(-c4ccc(C5=CCC(C(=O)O)CC5)cc4)c(Cl)cc3[nH]2)CC1 (stereo partly drawn)"
result_value = 373


Prompt: For the record "CC(C)(C(=O)O)[C@H]1CC[C@H](Oc2nc3nc(-c4c(F)cc(N5CCOCC5)cc4F)ccc3[nH]2)CC1" , what value of Emax is listed for Human AMPK α2β2γ1 (Homo sapiens, UniProt O43741+P54646)?
Response: 228

Prompt: Entry CC(C)(C(=O)O)C1CCC(Oc2nc3nc(-c4ccc(C5(CO)CC5)cc4)c(Cl)cc3[nH]2)CC1 (stereo not drawn) , system Human AMPK α2β2γ1 (Homo sapiens, UniProt O43741+P54646): what Emax was measured?
Response: 237

###

# study system: human AMPK α1β1γ1 enzyme (Homo sapiens, UniProt Q13131+Q9Y478)
# Construct: purchased Carna Biosciences, Inc
# procedure summary: Evaluation of AMPK activator, Test Example 1 (mobility-shift kinase assay, FL-Peptide 7)
# Type: biochemical
# condition label: human AMPK α1β1γ1, 25° C., 2 hours, 0.2 mM ATP final
In this section we review reported EC150 (compound concentration showing 150% relative to the control (100%)) values for a set of compounds.
Entry rule: numbers only, all in nM.

Solved entries:
[[record]]
compound = "CN(C)C(=O)[C@H]1C[C@@H](Oc2nc3nc(-c4ccc(-c5ccc(C(=O)O)cc5)cc4)c(Cl)cc3[nH]2)C1 [Compound I-3-91]"
result_value = 21

[[record]]
compound = "O=C1CCC(Oc2nc3nc(-c4ccc(N5CCOCC5)cc4)c(Cl)cc3[nH]2)CN1 (stereo not shown) [Compound I-1-68]"
result_value = 4900

[[record]]
compound = "CC(C)(C(N)=O)C1CCC(Oc2nc3nc(-c4ccc(N5CCOCC5)cc4)c(Cl)cc3[nH]2)CC1 (stereo not shown) [Compound I-3-25]"
result_value = 230


Next compound, please.
Prompt: Entry under review: CC(C)(C(=O)O)[C@]1(O)CC[C@@H](Oc2nc3nc(-c4ccc(N5CCCC5)cc4)c(Cl)cc3[nH]2)CC1 [Compound I-3-30] . Reported EC150 (compound concentration showing 150% relative to the control (100%))?
Response: 0.49

###

# study system: human AMPK α1β1γ1 enzyme (Homo sapiens, UniProt Q13131+Q9Y478)
# Construct: purchased Carna Biosciences, Inc
# procedure summary: Evaluation of AMPK activator, Test Example 1 (mobility-shift kinase assay, FL-Peptide 7)
# Format: biochemical
# condition label: human AMPK α1β1γ1, relative to control (100%); read-out: Emax (maximum rate of increase in activity within the measurement range)
measurement name: Emax (%)
Answer with a number only, understood to be in %.

Use the examples below as a reference point.
[[record]]
molecule = "CC(=O)NC1CC=C(c2ccc(-c3nc4nc(O[C@H]5CC[C@H](C(=O)O)CC5)[nH]c4cc3Cl)cc2)CC1 (some centres unmarked) [Compound I-2-58]"
study_system = "human AMPK α1β1γ1 enzyme (Homo sapiens, UniProt Q13131+Q9Y478)"
unit_spec = "%"
result_value = 169

[[record]]
molecule = "O=C(O)C1CCC(Oc2nc3nc(-c4ccc(N5CCOCC5)cc4)c(Cl)cc3[nH]2)C1 (centres unmarked) [Compound I-3-53]"
study_system = "human AMPK α1β1γ1 enzyme (Homo sapiens, UniProt Q13131+Q9Y478)"
unit_spec = "%"
result_value = 261

[[record]]
molecule = "CC(C)(C(=O)O)[C@H]1CC[C@H](Oc2nc3nc(-c4ccc(-c5ccccc5O)cc4)c(Cl)cc3[nH]2)CC1 [Compound I-3-97]"
study_system = "human AMPK α1β1γ1 enzyme (Homo sapiens, UniProt Q13131+Q9Y478)"
unit_spec = "%"
result_value = 343

[[record]]
molecule = "CC(=O)N1CC=C(c2ccc(-c3nc4nc(OC5CCC(C(C)(C)C(=O)O)CC5)[nH]c4cc3Cl)cc2)CC1 (centres unmarked) [Compound I-3-39]"
study_system = "human AMPK α1β1γ1 enzyme (Homo sapiens, UniProt Q13131+Q9Y478)"
unit_spec = "%"
result_value = 286

[[record]]
molecule = "CC(=O)N1CC=C(c2ccc(-c3nc4nc(OC5CCC(C(C)(C)CO)CC5)[nH]c4cc3Cl)cc2)CC1 (centres unmarked) [Compound I-3-92]"
study_system = "human AMPK α1β1γ1 enzyme (Homo sapiens, UniProt Q13131+Q9Y478)"
unit_spec = "%"
result_value = 303


Let us move to another entry and its Emax.
Prompt: Recorded Emax for CC(Oc1nc2nc(-c3ccc(N4CCOCC4)cc3)c(Cl)cc2[nH]1)C(N)=O (centres unmarked) [Compound I-1-37] , please?
Response: 228

###

This listing pairs molecules with measured EC150 (compound concentration showing 150% relative to the control (100%)).
# study system: Human AMPK α2β2γ1 (Homo sapiens, UniProt O43741+P54646)
# Construct: The full length cDNAs of human AMPK β2 (NM_005399.3) and human AMPK α2 (NM_006252.3) were inserted; the full length cDNA of human AMPK γ1 (NM_002733.3) had been inserted into pET28b(+); 6xHis (N); made in house; host or cells: Escherichia coli BL21 CodonPlus (DE3)-RIL (AMPK); BL21 Star (DE3) (CaMKKβ)
# procedure summary: Evaluation of AMPK activator, Test Example 2 (CaMKK2-phosphorylated enzyme, mobility-shift kinase assay)
# Format: biochemical
# condition label: human AMPK α2β2γ1 phosphorylated by CaMKK2, 25° C., 2 hours
// units = nM; emit number, no label

Worked cases, answers included:
[[record]]
molecule = "CC(=O)NC1CC=C(c2ccc(-c3nc4nc(O[C@H]5CC[C@H](CC(=O)O)CC5)[nH]c4cc3Cl)cc2)CC1 (stereo partly shown) [Compound I-2-76]"
unit_spec = "nM"
result_value = 85

[[record]]
molecule = "CC(=O)NC1CC=C(c2ccc(-c3nc4nc(O[C@H]5CC[C@H](C(C)(C)CO)CC5)[nH]c4cc3Cl)cc2)CC1 (stereo partly shown) [Compound I-3-86]"
unit_spec = "nM"
result_value = 11

[[record]]
molecule = "CC(C)(C(=O)O)[C@]1(O)CC[C@@H](Oc2nc3nc(-c4ccc(N5CCOCC5)cc4)c(Cl)cc3[nH]2)CC1 [Compound I-3-24]"
unit_spec = "nM"
result_value = 11

[[record]]
molecule = "CC(C)(C(=O)O)[C@H]1CC[C@H](Oc2nc3nc(-c4ccc(C5=CCN(C(=O)CO)CC5)cc4)c(Cl)cc3[nH]2)CC1 [Compound I-3-90]"
unit_spec = "nM"
result_value = 21

[[record]]
molecule = "CC(C)(C(=O)O)[C@]1(O)CC[C@@H](Oc2nc3nc(-c4ccc(N5CCCC5)cc4)c(Cl)cc3[nH]2)CC1 [Compound I-3-30]"
unit_spec = "nM"
result_value = 12


Prompt: Name the reported EC150 (compound concentration showing 150% relative to the control (100%)) value associated with the molecule CC(Oc1nc2nc(-c3ccc(N4CCCC4)cc3)c(Cl)cc2[nH]1)c1cc(O)no1 (stereo not shown) [Compound I-2-112]
Response: 74

Prompt: Give its EC150 (compound concentration showing 150% relative to the control (100%)) value. Item: NC(=O)c1ccc(-c2ccc(-c3nc4nc(O[C@H]5CC[C@H](C(=O)O)CC5)[nH]c4cc3Cl)cc2)cc1 [Compound I-3-120]
Response: 7
